Biological target: WDR5 protein (Homo sapiens (Human), UniProt P61964)
Test: Surface Plasmon Resonance (SPR) assay
Format: binding
Conditions: SPR, Table 2; read-out: WDR5 binding affinity SPR (KD)
readout_name: Kd (nM)

| compound | readout_name | prefix_operator | observed_measurement |
| --- | --- | --- | --- |
| C[C@@H]1CN(c2ccc(-c3c(F)cc(CNC4CCCCC4)cc3F)cc2NC(=O)c2c[nH]c(=O)cc2C(F)(F)F)C[C@H](C)N1C [Example 115] | Kd | = | 55 |
| CNc1cc(C(F)(F)F)c(C(=O)Nc2cc(-c3cc(CN4CCOCC4)ccc3F)ccc2N2CCN(C)CC2)cn1 [Example 108] | Kd | > | 200 |
| CN1CCN(c2ccc(-c3cc(OCC4CC4)c(F)cc3F)cc2NC(=O)c2c[nH]c(=O)cc2C(F)(F)F)CC1 [Example 21] | Kd | = | 19 |
| C[C@@H]1CN(c2ccc(-c3ccc(C(N)=O)cc3F)cc2NC(=O)c2c[nH]c(=O)cc2C(F)(F)F)C[C@H](C)N1C [Example 117] | Kd | = | 1.6 |
| C[C@@H]1CN(c2ccc(-c3cc(C(=O)Nc4ccccc4)ccc3F)cc2NC(=O)c2c[nH]c(=O)cc2C(F)(F)F)C[C@H](C)N1C [Example 80] | Kd | = | 14 |
| CN1CCN(c2ccc(-c3cc(CN4CCOCC4)ccc3F)cc2NC(=O)c2c[nH]c(=O)cc2C(F)F)CC1 [Example 49] | Kd | = | 7 |
| CN1CCN(c2ccc(-c3cc(CN4CC[C@@H](N(C)C)C4)ccc3F)cc2NC(=O)c2c[nH]c(=O)cc2C(F)(F)F)CC1 [Example 71] | Kd | = | 4.8 |
| CN1CCN(c2ccc(-c3cc(OC(F)(F)F)ccc3F)cc2NC(=O)c2c[nH]c(=O)cc2C(F)(F)F)CC1 [Example 5] | Kd | = | 29 |
| CN1CCN(c2ccc(-c3cc(C(N)=O)c(O)cc3F)cc2NC(=O)c2c[nH]c(=O)cc2C(F)(F)F)CC1 [Example 4] | Kd | = | 86 |
| CN1CCN(c2ccc(-c3ccc(CNC4CCCC4)cc3F)cc2NC(=O)c2c[nH]c(=O)cc2C(F)(F)F)CC1 [Example 33] | Kd | = | 23 |
